- System: Haemophilus influenzae
- assay: Antibacterial activity against ampicillin-resistant Haemophilus influenzae 33929 by broth-microdilution method
- Format: functional
observationType: MIC

Hi! What's the reported MIC for `C=C1CO[C@H]2[C@H](C)[C@@H](O[C@@H]3O[C@H](C)C[C@H](N(C)C)[C@H]3O)[C@](C)(C[C@@H](C)C(=O)[C@H](C)[C@@H]3NC(=O)O[C@]3(C)[C@@H](CC)OC(=O)[C@@H]2C)OC1` on Haemophilus influenzae?
4 µg/mL

Follow-up entry: `C=C1CO[C@H]2[C@H](C)[C@@H](O[C@@H]3O[C@H](C)C[C@H](N(C)C)[C@H]3O)[C@](C)(C[C@@H](C)C(=O)[C@H](C)[C@@H](O)[C@](C)(O)[C@@H](CC)OC(=O)[C@@H]2C)OC1`
64 µg/mL

Follow-up entry: `C=C1CO[C@H]2[C@H](C)[C@@H](O[C@@H]3O[C@H](C)C[C@H](N(C)C)[C@H]3O)[C@](C)(C[C@@H](C)/C(=N\O)[C@H](C)[C@@H](O)[C@](C)(O)[C@@H](CC)OC(=O)[C@@H]2C)OC1`
32 µg/mL

Follow-up entry: `C=C1CO[C@H]2[C@H](C)[C@@H](O[C@@H]3O[C@H](C)C[C@H](N(C)C)[C@H]3O)[C@](C)(C[C@@H](C)[C@H](N)[C@H](C)[C@@H](O)[C@](C)(O)[C@@H](CC)OC(=O)[C@@H]2C)OC1`
32 µg/mL

Follow-up entry: CC[C@H]1OC(=O)[C@H](C)[C@@H](O[C@H]2C[C@@](C)(OC)[C@@H](O)[C@H](C)O2)[C@H](C)[C@@H](O[C@@H]2O[C@H](C)C[C@H](N(C)C)[C@H]2O)[C@](C)(O)C[C@@H](C)C(=O)[C@H](C)[C@@H](O)[C@]1(C)O [ERYTHROMYCIN]
4 µg/mL

Follow-up entry: `C=C1CO[C@H]2[C@H](C)[C@@H](O[C@@H]3O[C@H](C)C[C@H](N(C)C)[C@H]3O)[C@](C)(C[C@@H](C)C(=N)[C@H](C)[C@@H](O)[C@](C)(O)[C@@H](CC)OC(=O)[C@@H]2C)OC1`
64 µg/mL
